Provenance of the data: patent US9834543B2

molecular target: human Nav1.7 (Homo sapiens (Human), UniProt Q15858); assay: FLIPR or FLIPR TETRA sodium dye assay with KCl and test article pre-incubation (sodium mobilization); type: cell-based; conditions: recombinant human Nav1.7 in HEK293; veratridine and scorpion venom agonists
Sequence (Q15858 with tags, fused parts or gaps limits assumed): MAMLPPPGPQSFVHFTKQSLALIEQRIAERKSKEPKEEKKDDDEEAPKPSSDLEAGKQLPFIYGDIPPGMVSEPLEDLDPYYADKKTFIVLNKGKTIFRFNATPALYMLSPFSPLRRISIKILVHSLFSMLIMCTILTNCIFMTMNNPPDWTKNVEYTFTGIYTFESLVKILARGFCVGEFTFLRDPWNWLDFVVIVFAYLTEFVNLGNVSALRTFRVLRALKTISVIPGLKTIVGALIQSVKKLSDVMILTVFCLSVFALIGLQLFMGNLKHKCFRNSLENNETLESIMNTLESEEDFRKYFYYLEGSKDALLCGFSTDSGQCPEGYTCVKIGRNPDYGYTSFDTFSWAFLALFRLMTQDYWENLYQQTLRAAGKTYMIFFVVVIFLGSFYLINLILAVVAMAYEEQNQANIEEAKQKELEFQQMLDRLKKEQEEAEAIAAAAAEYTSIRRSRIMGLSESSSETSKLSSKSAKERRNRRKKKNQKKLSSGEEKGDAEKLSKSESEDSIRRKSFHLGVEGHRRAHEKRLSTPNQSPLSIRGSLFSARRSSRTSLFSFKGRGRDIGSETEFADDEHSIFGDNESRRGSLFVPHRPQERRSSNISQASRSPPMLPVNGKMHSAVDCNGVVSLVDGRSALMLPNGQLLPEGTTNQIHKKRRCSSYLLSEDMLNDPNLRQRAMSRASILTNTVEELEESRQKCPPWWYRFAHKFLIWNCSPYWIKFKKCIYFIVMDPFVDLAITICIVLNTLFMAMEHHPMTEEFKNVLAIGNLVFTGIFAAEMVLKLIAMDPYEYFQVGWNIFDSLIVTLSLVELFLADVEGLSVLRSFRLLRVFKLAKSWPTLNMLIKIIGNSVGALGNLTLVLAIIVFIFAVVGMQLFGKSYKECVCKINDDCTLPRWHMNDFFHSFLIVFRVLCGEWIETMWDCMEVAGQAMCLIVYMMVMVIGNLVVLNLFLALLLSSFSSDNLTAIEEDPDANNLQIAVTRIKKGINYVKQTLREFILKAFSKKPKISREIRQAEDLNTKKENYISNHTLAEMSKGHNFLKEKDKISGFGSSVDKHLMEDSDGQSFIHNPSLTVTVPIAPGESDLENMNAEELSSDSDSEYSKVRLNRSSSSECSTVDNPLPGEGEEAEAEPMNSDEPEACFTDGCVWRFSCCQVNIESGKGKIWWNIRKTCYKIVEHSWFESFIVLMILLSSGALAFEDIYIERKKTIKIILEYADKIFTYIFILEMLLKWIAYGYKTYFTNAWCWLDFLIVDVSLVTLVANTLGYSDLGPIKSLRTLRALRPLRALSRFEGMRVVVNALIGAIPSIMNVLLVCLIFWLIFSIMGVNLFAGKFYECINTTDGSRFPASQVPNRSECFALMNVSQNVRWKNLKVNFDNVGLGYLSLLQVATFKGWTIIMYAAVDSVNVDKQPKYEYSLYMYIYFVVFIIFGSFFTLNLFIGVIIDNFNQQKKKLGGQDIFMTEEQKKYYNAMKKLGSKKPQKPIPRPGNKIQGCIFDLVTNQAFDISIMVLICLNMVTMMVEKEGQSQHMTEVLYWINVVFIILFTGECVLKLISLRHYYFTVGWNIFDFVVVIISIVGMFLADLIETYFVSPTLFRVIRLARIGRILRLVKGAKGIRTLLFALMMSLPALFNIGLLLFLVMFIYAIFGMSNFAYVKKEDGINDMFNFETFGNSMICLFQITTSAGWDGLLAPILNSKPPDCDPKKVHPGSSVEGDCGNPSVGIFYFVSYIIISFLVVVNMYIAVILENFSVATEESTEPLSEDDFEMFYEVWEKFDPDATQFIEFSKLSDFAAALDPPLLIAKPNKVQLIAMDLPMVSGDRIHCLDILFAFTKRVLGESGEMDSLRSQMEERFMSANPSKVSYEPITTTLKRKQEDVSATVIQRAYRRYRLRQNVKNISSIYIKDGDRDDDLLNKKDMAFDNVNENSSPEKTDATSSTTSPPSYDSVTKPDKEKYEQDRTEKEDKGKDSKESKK
recorded.metric: IC50

Find the measured IC50: item Cn1ncc2c(Oc3cc(F)c(S(=O)(=O)Nc4nncs4)cc3Cl)ccc(Cl)c21 , target or system human Nav1.7 (Homo sapiens (Human), UniProt Q15858). > 20 µM

###

target: human Nav1.7 (Homo sapiens (Human), UniProt Q15858); test: FLIPR or FLIPR TETRA sodium dye assay with KCl and test article pre-incubation (sodium mobilization); assay type: cell-based
Rule: IC50 below 0.5 µM gives met, anything at or above gives not met.

Lab note: IC50 threshold 0.5 µM. Does this compound come in strictly under it? Cn1ncc2c(Oc3ccc(-c4cc([C@H](O)CO)cc(C(N)=O)n4)cc3)ccc(F)c21 not met
